biological target: human GLP-1 receptor (human, UniProt P43220 24-463); assay: cell-based or functional assay
Numbered stars: 1 amine (or outer) side, 2 acyl side, 3 side chain; on linkers, the order of the positions; unused ones are H or OH. Square brackets hold non-standard residues; d marks the D form. Side chains are listed from the residue outwards. * marks the point of attachment. C20 diacid = O=C(O)CCCCCCCCCCCCCCCCCCC(=O)*; C18 diacid = O=C(O)CCCCCCCCCCCCCCCCC(=O)*; γGlu = O=C(O)[C@H](CCC(=O)[*:2])N[*:1]; Chem. 28 = not defined here; AEEA = NCCOCCOCC(=O)O; Aib = CC(C)(N)C(=O)O
READOUT_KIND: hGLP-1R Potency, no HSA, EC50 [pM] (pM)
One number for each entry, in pM.

Below, 3 binders whose answers are already recorded.
# BINDER, DATA_VALUE
records = [
    ("Compound 19 (reading uncertain) peptide: Y[Aib]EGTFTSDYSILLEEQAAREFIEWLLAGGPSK(Chem. 28)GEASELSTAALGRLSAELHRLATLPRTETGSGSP-NH2", 57.9),
    ("Compound 35 (reading uncertain) peptide: Y[Aib]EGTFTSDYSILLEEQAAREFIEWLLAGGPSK(Chem. 28)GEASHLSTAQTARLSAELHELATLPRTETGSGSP-NH2", 23.3),
    ("Compound 16 (peptide) peptide: H[Aib]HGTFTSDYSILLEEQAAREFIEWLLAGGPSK([AEEA-AEEA-γGlu-C20 diacid])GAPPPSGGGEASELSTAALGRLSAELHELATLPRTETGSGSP-NH2", 2.74),
]

Problem: Item under review: Compound 79 (peptide) peptide: Y[Aib]EGTFTSDYSILLEEQAAREFIEWLLAGGPSSGEASHLSTAQTQRLSAK([AEEA-AEEA-γGlu-C18 diacid])LHRLATLPRTETGSGSP-NH2 . Reported hGLP-1R Potency, no HSA, EC50 [pM]?
Result: 38.7

Source: patent US20260174875A1
